Target: Interleukin-6 receptor subunit beta (Homo sapiens, UniProt P40189)
Sequence (P40189 whole entry): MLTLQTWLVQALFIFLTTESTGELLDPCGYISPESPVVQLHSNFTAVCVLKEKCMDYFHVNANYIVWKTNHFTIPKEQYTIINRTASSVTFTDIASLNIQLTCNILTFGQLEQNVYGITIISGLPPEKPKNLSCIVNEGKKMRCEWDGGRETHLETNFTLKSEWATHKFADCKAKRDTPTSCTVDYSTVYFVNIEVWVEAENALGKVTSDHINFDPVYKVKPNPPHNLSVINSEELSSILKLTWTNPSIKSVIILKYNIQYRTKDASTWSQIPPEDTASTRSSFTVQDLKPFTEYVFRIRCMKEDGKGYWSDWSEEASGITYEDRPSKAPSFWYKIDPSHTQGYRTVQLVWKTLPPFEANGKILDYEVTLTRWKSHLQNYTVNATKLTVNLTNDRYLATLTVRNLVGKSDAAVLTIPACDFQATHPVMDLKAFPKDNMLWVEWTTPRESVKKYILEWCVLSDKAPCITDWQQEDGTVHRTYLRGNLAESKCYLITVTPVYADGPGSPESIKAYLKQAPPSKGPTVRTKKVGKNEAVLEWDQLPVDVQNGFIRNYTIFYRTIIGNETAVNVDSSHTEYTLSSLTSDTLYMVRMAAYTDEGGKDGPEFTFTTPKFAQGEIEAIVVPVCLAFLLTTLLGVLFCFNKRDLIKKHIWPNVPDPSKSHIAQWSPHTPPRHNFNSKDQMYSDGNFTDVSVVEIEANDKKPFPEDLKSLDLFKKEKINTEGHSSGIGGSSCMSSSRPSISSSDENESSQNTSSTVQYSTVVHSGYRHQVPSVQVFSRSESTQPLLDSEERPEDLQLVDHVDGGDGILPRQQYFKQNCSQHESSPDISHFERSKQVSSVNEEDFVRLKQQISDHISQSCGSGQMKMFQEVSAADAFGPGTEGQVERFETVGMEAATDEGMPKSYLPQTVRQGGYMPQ
Assay: Binding affinity to immobilized GP130 (unknown origin) by SPR analysis

| COMPOUND | MEASUREMENT_UNITS | Kd |
| --- | --- | --- |
| NC(=O)N1N=C(c2ccc(C(F)(F)F)cc2)CC1c1cn(Cc2ccc(OCCN3CCCCCC3)cc2)c2ccc(Br)cc12 (stereo unspecified) | µM | 3.8 |

---

Biological target: Interleukin-6 receptor subunit beta (Homo sapiens) (UniProt P40189)
Sequence (whole entry): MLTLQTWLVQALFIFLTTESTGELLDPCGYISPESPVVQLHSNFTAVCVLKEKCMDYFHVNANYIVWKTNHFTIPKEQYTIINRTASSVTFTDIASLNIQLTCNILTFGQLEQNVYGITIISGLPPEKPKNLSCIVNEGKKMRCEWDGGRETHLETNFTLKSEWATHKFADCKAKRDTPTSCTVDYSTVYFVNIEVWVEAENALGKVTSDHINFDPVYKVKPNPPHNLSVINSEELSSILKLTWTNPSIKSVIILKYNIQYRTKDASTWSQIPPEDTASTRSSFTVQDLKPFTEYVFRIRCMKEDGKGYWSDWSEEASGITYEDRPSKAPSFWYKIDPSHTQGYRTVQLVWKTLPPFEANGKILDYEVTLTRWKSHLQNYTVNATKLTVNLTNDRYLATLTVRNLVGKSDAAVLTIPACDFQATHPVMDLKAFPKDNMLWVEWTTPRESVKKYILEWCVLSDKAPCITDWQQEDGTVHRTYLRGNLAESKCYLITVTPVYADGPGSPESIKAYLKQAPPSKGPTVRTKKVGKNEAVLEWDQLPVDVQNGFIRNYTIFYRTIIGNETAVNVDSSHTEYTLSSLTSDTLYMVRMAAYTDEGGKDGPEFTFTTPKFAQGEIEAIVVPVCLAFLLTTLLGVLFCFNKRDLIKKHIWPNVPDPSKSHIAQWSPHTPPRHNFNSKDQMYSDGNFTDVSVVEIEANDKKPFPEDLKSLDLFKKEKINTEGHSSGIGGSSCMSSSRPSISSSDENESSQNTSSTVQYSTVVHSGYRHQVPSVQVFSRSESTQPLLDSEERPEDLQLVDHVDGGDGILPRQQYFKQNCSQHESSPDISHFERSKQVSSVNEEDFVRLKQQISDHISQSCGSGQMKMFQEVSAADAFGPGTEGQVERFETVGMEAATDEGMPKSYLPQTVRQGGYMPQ
Assay: Binding affinity to immobilized GP130 (unknown origin) assessed as response unit at 20 uM by SPR analysis
# reported Activity; entries follow

| COMPOUND | Activity [RU] |
| --- | --- |
| NC(=O)N1N=C(c2ccc(F)cc2)CC1c1cn(Cc2ccc(OCCN3CCCCC3)cc2)c2ccc(Br)cc12 (centres undefined) | 19.9 |
| NC(=O)N1N=C(c2ccc(C(F)(F)F)cc2)C[C@@H]1c1cn(Cc2ccc(OCCN3CCCCCC3)cc2)c2ccc(Br)cc12 | 24.2 |
| NC(=O)N1N=C(c2ccc(F)cc2)CC1c1cn(Cc2ccc(OCCN3CCCCC3)cc2)c2ccccc12 (centres undefined) | 21 |
| NC(=O)N1N=C(c2ccc(C(F)(F)F)cc2)C[C@H]1c1cn(Cc2ccc(OCCN3CCCCCC3)cc2)c2ccc(Br)cc12 | 37.4 |

---

Target: Interleukin-6 receptor subunit beta (Homo sapiens) (UniProt P40189)
Sequence (whole entry): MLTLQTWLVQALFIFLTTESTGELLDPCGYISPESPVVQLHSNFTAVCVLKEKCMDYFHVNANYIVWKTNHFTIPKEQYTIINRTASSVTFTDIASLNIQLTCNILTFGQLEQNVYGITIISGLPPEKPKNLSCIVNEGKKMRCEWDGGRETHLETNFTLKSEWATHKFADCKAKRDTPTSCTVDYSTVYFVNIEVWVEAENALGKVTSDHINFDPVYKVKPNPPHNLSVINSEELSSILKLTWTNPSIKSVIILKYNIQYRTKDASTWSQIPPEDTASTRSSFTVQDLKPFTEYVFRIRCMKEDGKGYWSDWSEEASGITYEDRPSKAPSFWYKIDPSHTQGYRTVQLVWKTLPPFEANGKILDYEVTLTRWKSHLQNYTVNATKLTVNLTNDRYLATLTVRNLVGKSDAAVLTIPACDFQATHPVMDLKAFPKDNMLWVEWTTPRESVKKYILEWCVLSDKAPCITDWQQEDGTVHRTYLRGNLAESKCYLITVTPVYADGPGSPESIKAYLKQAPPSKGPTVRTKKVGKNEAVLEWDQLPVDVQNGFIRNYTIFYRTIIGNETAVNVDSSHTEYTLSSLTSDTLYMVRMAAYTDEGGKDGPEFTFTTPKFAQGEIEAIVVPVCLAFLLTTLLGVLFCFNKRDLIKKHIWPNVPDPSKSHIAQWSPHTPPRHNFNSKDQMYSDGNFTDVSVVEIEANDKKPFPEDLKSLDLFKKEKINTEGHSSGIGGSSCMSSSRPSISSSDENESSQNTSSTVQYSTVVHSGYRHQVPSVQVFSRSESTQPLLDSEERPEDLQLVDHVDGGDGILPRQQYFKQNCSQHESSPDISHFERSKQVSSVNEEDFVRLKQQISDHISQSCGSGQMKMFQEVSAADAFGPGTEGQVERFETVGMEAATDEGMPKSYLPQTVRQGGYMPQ
Experiment: Binding affinity to immobilized GP130 (unknown origin) assessed as response unit at 20 uM by SPR analysis
Below: a set of entries, each annotated with reported Activity.

| COMPOUND | SYSTEM_TESTED | Activity / RU |
| --- | --- | --- |
| COc1ccc2c(c1)c(C1CC(c3ccc(F)cc3)=NN1C(N)=O)cn2Cc1ccc(OCCN2CCCCC2)cc1 (centres undefined) | Interleukin-6 receptor subunit beta (Homo sapiens) (UniProt P40189) | 10.9 |
| NC(=O)N1N=C(c2ccc(C(F)(F)F)cc2)CC1c1cn(Cc2ccc(OCCN3CCCCC3)cc2)c2ccc(Br)cc12 (centres undefined) | Interleukin-6 receptor subunit beta (Homo sapiens) (UniProt P40189) | 19.9 |
| COc1ccc2c(c1)c(C1CC(c3ccc(C(F)(F)F)cc3)=NN1C(N)=O)cn2Cc1ccc(OCCN2CCCCC2)cc1 (centres undefined) | Interleukin-6 receptor subunit beta (Homo sapiens) (UniProt P40189) | 10.4 |
| COc1ccc(C2=NN(C(N)=O)C(c3cn(Cc4ccc(OCCN5CCCCC5)cc4)c4ccc(OC)cc34)C2)cc1 (centres undefined) | Interleukin-6 receptor subunit beta (Homo sapiens) (UniProt P40189) | 28.8 |

---

assay: Clearance in rat at 0.5 mg/kg, iv; type: ADME, organism-based; settings: in vivo
READOUT_TYPE: clearance (mL/min/kg)

| MOLECULE | READOUT_TYPE | VALUE |
| --- | --- | --- |
| NC(=O)N1N=C(c2ccc(C(F)(F)F)cc2)CC1c1cn(Cc2ccc(OCCN3CCCCCC3)cc2)c2ccc(Br)cc12 (stereo unspecified) | clearance | 14.5 |

---

experiment: Mean residence time in rat at 5 mg/kg, ig; type: ADME, organism-based; details: in vivo, po

| COMPOUND | MRT (h) |
| --- | --- |
| NC(=O)N1N=C(c2ccc(C(F)(F)F)cc2)CC1c1cn(Cc2ccc(OCCN3CCCCCC3)cc2)c2ccc(Br)cc12 (stereo unspecified) | 11.6 |
